Where do the numbers come from? From ChEMBL document CHEMBL1201862.

- Test system: RXF 393
- assay.name: NCI tumour cell line growth inhibition, 48 h
Activity calls are given as the source filed them. Rule as the data show it: active = GI50 up to about 1.1 µM and inactive = higher.
recorded.endpoint: GI50

- compound: "CC1(C)Oc2ccc3c(=O)cc(-c4ccc(F)cc4)oc3c2C1C(=O)O (centres undefined)"
  GI50: "> 100 µM (inactive)"
- compound: "CC1(c2ccc(F)cc2)C2C(=O)NC(=O)C1C(=O)NC2=O (centres undefined)"
  GI50: "> 100 µM (inactive)"
- compound: "Cc1ccc(SC(CCC(Sc2ccc(C)cc2)Sc2ccc(C)cc2)Sc2ccc(C)cc2)cc1"
  GI50: "> 100 µM (inactive)"
- compound: "O=C(Nc1nc2ncn(CCOC(=O)c3ccccc3)c2c(=S)[nH]1)c1ccccc1"
  GI50: "18.6 µM (inactive)"
- compound: "Cc1ccc2[nH]c3c(C)c4cc[n+](C)cc4c(C)c3c2c1"
  GI50: "1.42 µM (inactive)"

Tested on RXF 393, the item Cc1ccc(S(=O)(=O)NNC(=O)Nc2cccc(C(F)(F)F)c2)cc1 showed GI50 equal to 85.7 µM (inactive)

Summary line: CC(C)C1=CC23CCC4C(C)(C(=O)O)CCCC4(C)C2CC1C1C(=O)N(CCCCCCN2C(=O)C4C5CC6C7(C)CCCC(C)(C(=O)O)C7CCC6(C=C5C(C)C)C4C2=O)C(=O)C13 (centres undefined) , RXF 393, reported GI50 = 14.2 µM (inactive)

Entry CC(=O)OC12c3ccccc3-c3ccccc3C1C1C(=O)OC(=O)C12 (centres undefined) : GI50 on RXF 393 = > 10 µM (inactive)

Readout GI50 for COC(=O)C1=C(C)N2CCCOC2(C)C(C(=O)OC)C1c1cccc(Cl)c1 (centres undefined) , test system RXF 393, was 33.1 µM (inactive)

====

- Test system: OVCAR-5
- assay.name: NCI tumour cell line growth inhibition, 48 h
Active and inactive are the calls of the source. Rule as the data show it: active = GI50 up to about 1.1 µM and inactive = higher.
As shown below, each of these compounds has a reported GI50 value.

Field: example entries. Status: answers known.
- compound: "O=C1CSC(c2ccccc2O)N1c1ccc2c(c1)Oc1c(Cl)c3c(c(Cl)c1=N2)Oc1cc(N2C(=O)CSC2c2ccccc2O)ccc1N=3 (stereo not given)"
  experimental.result: "> 100 µM (inactive)"
- compound: "Nc1ccc(C2=N/C(=C\\c3cccc(N)c3)C(=O)O2)cc1"
  experimental.result: "> 100 µM (inactive)"
- compound: "COC(=O)CCC(NC(=S)N/N=C(\\C)c1cnc2ccccc2n1)C(=O)OC (stereo not given)"
  experimental.result: "16.3 µM (inactive)"
- compound: "O=C1CSC(c2c[nH]c3ccccc23)N1c1ccc(Cl)cc1 (stereo not given)"
  experimental.result: "> 100 µM (inactive)"
- compound: "CC1=C(C(=O)OC(C)C)C(c2ccccc2[N+](=O)[O-])C(C(=O)OC(CO[N+](=O)[O-])CO[N+](=O)[O-])=C(C)N1 (stereo not given)"
  experimental.result: "13.8 µM (inactive)"
- compound: "CCOC(=O)/C=C/C1OC(C)(C)OC1/C=C/C(=O)OCC (stereo not given)"
  experimental.result: "29.9 µM (inactive)"
- compound: "Clc1sc(Cl)c2c1[C@H](Cl)C[C@@H]2Cl"
  experimental.result: "29.2 µM (inactive)"
- compound: "O=C(O)CSc1ccc2nc3ccccc3c(O)c2c1"
  experimental.result: "> 100 µM (inactive)"

Lab book: GI50 of O=C1Nc2ccccc2/C1=N/Nc1ccc([N+](=O)[O-])cc1 noted as 20.4 µM (inactive)

C=O.NNCCc1n[nH]c(=O)n1N yielded GI50 of > 100 µM (inactive)
